Recorded glycan array binding signal (z-score) values for a group of binders are listed next.
target: Gal(b1-3)GlcNAc(b1-3)Gal(b1-4)Glc; assay: glycan array binding signal (z-score within array); higher = stronger binding; settings: glycan notation: IUPAC condensed, linker removed
This excerpt belongs to a sample that is enriched for the strongest signals.
Lab note: jot the number down without any unit.

Some solved cases for reference:
>>> meas_value("MIC1 (Neospora caninum), Q8WRS0 (protein) AGAKTYGEASQPSASARSLQGALDTWCQEVFKKLCDDGYSKMCIPANQVVARQGLGRKDQQKLVWRCYDSAAFLAEGDENNVLSCVDDCGVSIPCPGGVDRDNSTHATRHDELSQLIKEGVVRYCSGFQAAANSYCNKRYPGTVARKSKGFGHKEPVKWRCYKPESLLFSVFSECVSNCGTTWSCPGGRLGTATNLDKKHFTDESGILQALTSVPKACPVGLVCLPRDQNPPACLDDNGNVPE")
-0.441
>>> meas_value("SBD (Rhizopus oryzae), P07683 (protein) ASIPSSASVQLDSYNYDGSTFSGKIYVKNIAYSKKVTVVYADGSDNWNNNGNIIAASFSGPISGSNYEYWTFSASVKGIKEFYIKYEVSGKTYYDNNNSANYQVS")
2.02

Let us examine a further case.
State its glycan array binding signal (z-score) for this binder: CV-2L (Chromobacterium violaceum), Q7NX84 (protein) MAQQGVFTLPARINFGVTVLVNSAATQHVEIFVDNEPRAAFSGVGTGDNNLGTKVINSGSGNVRVQITANGRQSDLVSSQLVLANKLNLAVVGSEDGTDMDYNDSIVILNWPLG
-0.304
